Where do the numbers come from? From ChEMBL document CHEMBL1201862.

Target: Cytochrome P450 2D6 (Homo sapiens, UniProt P10635);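 also: CYP2D6 member of a cytochrome P450 panel assay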
Sequence (P10635 whole entry): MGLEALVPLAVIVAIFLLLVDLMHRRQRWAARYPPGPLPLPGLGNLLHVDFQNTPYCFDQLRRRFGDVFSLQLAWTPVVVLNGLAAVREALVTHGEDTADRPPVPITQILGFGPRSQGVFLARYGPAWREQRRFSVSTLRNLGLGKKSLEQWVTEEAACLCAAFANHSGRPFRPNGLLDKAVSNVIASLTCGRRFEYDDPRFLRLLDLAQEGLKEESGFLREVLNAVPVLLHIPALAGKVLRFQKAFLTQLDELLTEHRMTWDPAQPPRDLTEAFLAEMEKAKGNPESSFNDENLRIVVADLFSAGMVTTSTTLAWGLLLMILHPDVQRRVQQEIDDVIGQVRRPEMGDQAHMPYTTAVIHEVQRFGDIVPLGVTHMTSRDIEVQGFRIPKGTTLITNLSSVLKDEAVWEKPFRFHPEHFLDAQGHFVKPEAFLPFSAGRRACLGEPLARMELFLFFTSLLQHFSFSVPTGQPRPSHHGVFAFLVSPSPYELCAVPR
attribute-measured: AC50

| compound | reported-value |
| --- | --- |
| Cn1c(=O)cc(OCCCC(=O)Nc2cccnc2)c2ccccc21 | 10 µM (inconclusive) |
| CN(Cc1ccco1)c1ncncc1-c1cccc(NS(C)(=O)=O)c1 | 20 µM (inconclusive) |

Query :: Query AC50 on Cytochrome P450 2D6 (Homo sapiens, UniProt P10635) for `c1ccc(N2CCC3(CCNCC3)CC2)cc1`
Result :: 15.8 µM (inconclusive)

Query :: Query AC50 on Cytochrome P450 2D6 (Homo sapiens, UniProt P10635) for `COc1ccccc1-c1cncnc1Nc1ccc(F)cc1`
Result :: 15.8 µM (inconclusive)

Query :: Query AC50 on Cytochrome P450 2D6 (Homo sapiens, UniProt P10635) for `COCCn1c(=O)c(CCc2ccccc2)nc2cnc(N(C)C)nc21`
Result :: 10 µM (inconclusive)

Query :: Query AC50 on Cytochrome P450 2D6 (Homo sapiens, UniProt P10635) for CNC(C)c1cc(OC)ccc1OC (stereo unspecified)
Result :: 25.1 µM (inconclusive)

Query :: Query AC50 on Cytochrome P450 2D6 (Homo sapiens, UniProt P10635) for `CN1/C(=C\C(=O)COC(=O)Cn2nnc(-c3ccccc3)n2)C(C)(C)c2ccccc21`
Result :: 31.6 µM (inconclusive)

Query :: Query AC50 on Cytochrome P450 2D6 (Homo sapiens, UniProt P10635) for Cc1sc(NC(=O)c2ccco2)c(C(c2cccnc2)N2CCCC2)c1C (stereo unspecified)
Result :: 10 µM (inconclusive)

Query :: Query AC50 on Cytochrome P450 2D6 (Homo sapiens, UniProt P10635) for `Cc1noc(C)c1-c1cc(NCc2cccs2)ncn1`
Result :: 20 µM (inconclusive)

Query :: Query AC50 on Cytochrome P450 2D6 (Homo sapiens, UniProt P10635) for CC(C)OC(=O)C(C#N)c1nc2ccccc2nc1N1CCN(Cc2ccccc2)CC1 (stereo unspecified)
Result :: 0.112 µM (inconclusive)
